# pEC50 annotations
Target or test system: TRPML3 (Homo sapiens, UniProt Q8TDD5)
Construct: expressed in transfected cells
Sequence (Q8TDD5 1-553): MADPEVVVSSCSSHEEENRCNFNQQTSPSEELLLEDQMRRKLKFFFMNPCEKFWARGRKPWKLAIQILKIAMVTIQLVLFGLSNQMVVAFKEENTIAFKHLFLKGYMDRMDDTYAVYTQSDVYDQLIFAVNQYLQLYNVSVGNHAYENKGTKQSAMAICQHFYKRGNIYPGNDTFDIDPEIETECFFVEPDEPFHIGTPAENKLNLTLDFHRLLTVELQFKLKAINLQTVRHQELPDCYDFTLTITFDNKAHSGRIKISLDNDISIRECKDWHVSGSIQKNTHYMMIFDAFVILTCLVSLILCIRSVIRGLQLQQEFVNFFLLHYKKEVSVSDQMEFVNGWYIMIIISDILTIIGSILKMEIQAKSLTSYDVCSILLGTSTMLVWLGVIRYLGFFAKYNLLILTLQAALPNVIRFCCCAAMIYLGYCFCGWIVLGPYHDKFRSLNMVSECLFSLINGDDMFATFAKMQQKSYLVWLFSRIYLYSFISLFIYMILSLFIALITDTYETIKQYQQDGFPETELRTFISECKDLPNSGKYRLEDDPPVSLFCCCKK
Assay remarks: Fluorescent TRPML3 assay (as for TRPML1)
Format: cell-based
Assay setup: Table 3, compounds 101-177
pEC50: −log10 of the molar value.

Solved cases below.
C[C@H]1CN(C(=O)C(C)(C)C)CCN1c1ncnc2c1c(-c1ccccc1)cn2-c1cc(C#N)ccn1 [Compound 120]	> 7.00
CC(F)C(=O)N1CCN(c2ncnc3c2c(-c2ccccc2F)cn3-c2cc(C#N)ccn2)[C@@H](C)C1 (stereo partly shown) [Compound 113]	6.30 to 7.00
Cc1cc(C#N)cc(-n2cc(-c3ccccc3F)c3c(N4CCN(C(=O)C(C)C)C[C@@H]4C)ncnc32)n1 [Compound 143]	6.30 to 7.00

API: the following record is the query input.
Ask | Could you share which pEC50 value was measured for C[C@@H]1CN(c2ncnc3c2c(C2CC2)cn3-c2cc(C#N)ccn2)CCN1C(=O)C(C)(C)C [Compound 122] ?
Reply | 6.30 to 7.00
